Measured values drawn from patent US20260297542A1 for this set.

subject-of-test: AtPPO1 S305L Y362F G404A (SEQ ID NO.129) (Arabidopsis thaliana, UniProt P55826, G404A/S305L/Y362F)
Construct: made in house; host or cells: E. coli BL21 (DE3) hemG, crude extract
Sequence (P55826 35-537 S305L/Y362F/G404A): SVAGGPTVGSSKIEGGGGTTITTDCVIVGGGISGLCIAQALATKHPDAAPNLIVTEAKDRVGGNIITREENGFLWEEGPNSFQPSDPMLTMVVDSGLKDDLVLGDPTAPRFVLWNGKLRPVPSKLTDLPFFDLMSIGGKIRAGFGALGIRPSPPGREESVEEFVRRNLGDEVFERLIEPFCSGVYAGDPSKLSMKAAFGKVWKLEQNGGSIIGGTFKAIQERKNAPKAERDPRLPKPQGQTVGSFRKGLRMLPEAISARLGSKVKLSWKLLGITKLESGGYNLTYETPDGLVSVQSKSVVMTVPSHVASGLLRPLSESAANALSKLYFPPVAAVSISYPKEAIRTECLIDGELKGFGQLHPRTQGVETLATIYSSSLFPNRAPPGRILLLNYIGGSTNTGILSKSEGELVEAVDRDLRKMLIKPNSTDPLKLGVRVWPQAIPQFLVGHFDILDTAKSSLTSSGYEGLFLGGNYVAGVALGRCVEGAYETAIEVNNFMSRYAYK
assay-name: fluorescent Protoporphyrinogen Oxidase assay, crude extract
Assay type: biochemical
experimental-conditions: read-out: percentage inhibition
Consider the following molecules and their measured inhibition at 0.1 ppm readings.

CC(C)N(C)S(=O)(=O)NC(=O)c1cc(-n2c(=O)cc(C(F)(F)F)n(C)c2=O)c(F)cc1Cl [Herbicide E, saflufenacil]    15%
CCOC(=O)COc1ncccc1Oc1cc(-n2c(=O)cc(C(F)(F)F)n(C)c2=O)c(F)cc1Cl [Herbicide A, epyrifenacil]    25%

Please fill in: inhibition at 0.1 ppm reported for CCOC(=O)[C@]1(C)CC(c2cc(-n3c(=O)n(C)c(=S)n(C)c3=O)c(F)cc2Cl)=NO1 [Herbicide D] = 9%

Short answer for C#CCN1C(=O)C(F)(F)Oc2cc(F)c(-n3c(=O)n(C)c(=S)n(C)c3=O)cc21 [Herbicide B, trifludimoxazin] : inhibition at 0.1 ppm was 70%

The molecule listed as CCOC(=O)C1(C)CC(c2cc(-n3c(=O)cc(C(F)(F)F)n(C)c3=O)c(F)cc2Cl)=NO1 (centres unmarked) [Herbicide C] shows inhibition at 0.1 ppm equal to 24%
